Taken from patent EP0058009A1.

System: acetic acid writhing
testProtocol: Analgesic effect, acetic acid writhing method (Koster et al.)
Format: in vivo, dd strain male mice
appliedConditions: Mus musculus, oral, 60 minutes before 0.7% acetic acid i.p., number of writhes, dd male mice, read-out: Analgesic Effect Inhibition Rate (%)
recordedEndpoint: inhibition in vivo at 100 mg/kg (%)
Enter your answer as a number in %; do not include the unit.

Check out these entries, answers already filled in.
testSmiles | unitsText | inhibition in vivo at 100 mg/kg
COc1ccc(C(=O)Nc2cc(C(F)(F)F)ccc2Cl)cc1N | % | 52.3
COc1ccc(C(=O)Nc2c(C)cccc2C)cc1N | % | 45.7
COc1ccc(C(=O)Nc2cc(C(F)(F)F)cc(C(F)(F)F)c2)cc1N | % | 24.6

// moving on: another record for inhibition in vivo at 100 mg/kg
Provide measured inhibition in vivo at 100 mg/kg value, entry: `COc1ccc(C(=O)Nc2cccc(C(F)(F)F)c2)cc1N` 48.8
